Kindly supply the reported MIC values for the records listed here.
Test system: Microsporum canis
Test: Antifungal activity against Microsporum canis
Assay type: functional
Numbers only, in µg/mL.

Worked cases, MIC given:
CN(C/C=C/c1ccccc1)CC1CCCc2ccccc21 (stereo unspecified) : 50
CN(C/C=C/c1ccccc1)Cc1cc2ccccc2c2ccccc12 : 100
CN(C/C=C/c1ccccc1)Cc1cccc2ccccc12 [NAFTIFINE] : 0.1

Respectfully, I request MIC for each entry included below.
1. CN(C/C=C/c1ccccc1)Cc1ccnc2ccccc12
2. CN(C/C=C/c1ccsc1)Cc1cccc2ccccc12

1: 1.6; 2: 0.2

---

Tested on: Microsporum canis
Assay: Antifungal activity against Microsporum canis
Type: functional
Provide the recorded MIC for the entries that follow.

CN(C/C=C/c1ccccc1F)Cc1cccc2ccccc12 : ≤ 1.6 µg/mL
CN(CCc1ccccc1)Cc1cccc2ccccc12 : 100 µg/mL
COc1ccc(/C=C/CN(C)Cc2cccc3ccccc23)cc1 : 50 µg/mL

Below are 5 compounds. Give each one its MIC.
1. CCCCCOC(=O)/C=C/CN(C)Cc1cccc2ccccc12
2. CN(C/C=C/c1ccccn1)Cc1cccc2ccccc12
3. CN(C/C=C/c1ccccc1)Cc1cccc2sccc12
4. C/C(=C\c1ccccc1)CN(C)Cc1cccc2ccccc12
5. C(=C\c1ccccc1)/C=N/Cc1cccc2ccccc12

< 1.6 µg/mL
12.5 µg/mL
0.1 µg/mL
100 µg/mL
> 100 µg/mL

Below is a list of compounds. For each, state its recorded MIC.
1. C(=C\c1ccccc1)/CN(Cc1cccc2ccccc12)c1ccccc1
2. Cc1ccc(/C=C/CN(C)Cc2cccc3ccccc23)cc1
3. CN(C/C=C/c1ccccc1)C(=O)c1cccc2ccccc12
4. CN(C/C=C/C#N)Cc1cccc2ccccc12
5. CN(C/C=C/c1cccc2ccccc12)Cc1cccc2ccccc12
6. CN(C/C=C/c1ccccc1)Cc1ccc(Cl)c2ccccc12
7. CN(CCCc1ccccc1)Cc1cccc2ccccc12
8. CN(C/C=C/c1ccccc1)c1cccc2ccccc12

["> 100 µg/mL", "< 1.6 µg/mL", "≤ 1.6 µg/mL", "100 µg/mL", "100 µg/mL", "0.1 µg/mL", "> 100 µg/mL", "> 100 µg/mL"]

For each of the compounds below, note its MIC.
1. CN(C/C=C/c1ccncc1)Cc1cccc2ccccc12
2. Cc1ccc(CN(C)C/C=C/c2ccccc2)c2ccccc12

1. 25 µg/mL
2. 0.4 µg/mL

// each listed compound needs a value for MIC
1. CN(CCC(=O)c1ccccc1)Cc1cccc2ccccc12
2. CN(C/C=C/c1ccccc1)Cc1coc2ccccc12
3. CN(C/C=C/c1ccccc1Cl)Cc1cccc2ccccc12
4. CN(C/C=C/c1ccccc1)CC1=CCOc2ccccc21
5. [O-][S+](C/C=C/c1ccccc1)Cc1cccc2ccccc12 (stereo unspecified)
6. CN(C/C=C/c1ccc(F)cc1)Cc1cccc2ccccc12
7. CCN(C/C=C/c1ccccc1)Cc1cccc2ccccc12

["6.2 µg/mL", "1.6 µg/mL", "< 1.6 µg/mL", "0.4 µg/mL", "> 100 µg/mL", "0.2 µg/mL", "< 1.6 µg/mL"]

Tell me MIC reported for CN(C/C=C/C1=CCCCCC1)Cc1cccc2ccccc12
0.05 µg/mL

This collection of values is drawn from ChEMBL document CHEMBL1123199.
